Value source: the supplement of paper PMC13380429

Field: drug sensitivity score. Provide a value for each of the compounds that follow.
System: HepG2
Experiment: drug sensitivity score (DSS) for viability; higher = more toxic; extreme values may be limits of the assay
Details: 72 h

Use these answered entries as a reference point.
CN(C)c1ccccc1CN1CCCN(Cc2ccccc2N(C)C)C1c1ccncc1 = 2
Cc1cccc(Nc2cc(Cl)nc(SCC(=O)O)n2)c1C = 0
C[C@H](N)[C@H](O)c1cccc(O)c1 = 0
Cc1cc(-c2ccc(CC(=O)Nc3ccc(-c4cccnc4)cc3)cc2)ccn1 = 0.3

Q: What value of drug sensitivity score has been reported for the following compound? CC(N)Cc1c[nH]c2ccc(OCc3cccs3)cc12 (stereo not given)
Ans: 1
